Taken from PubChem BioAssay (NCI).

# Test system: SK-MEL-2 melanoma
# ASSAY OVERVIEW: NCI tumour cell line growth inhibition, 48 h
READOUT: TGI

>>> assay_result("O=C(Nc1cccc2cccnc12)c1ccc(N2C(=O)[C@@H]3[C@H](C2=O)[C@@H]2C=C[C@H]3C2)cc1")
"80.1 µM"
>>> assay_result("O=C1C(Cl)=C(Nc2cccc(C(F)(F)F)c2)C(=O)N1Cc1ccccc1Cl")
"19.8 µM"
>>> assay_result("CO/C(=N\\N=C\\c1ccc(OC)cc1OC)c1ccncc1")
"> 10 µM"
>>> assay_result("Cn1c(=O)c2c(nc(C[N+]3([O-])CCOCC3)n2C)n(C)c1=O")
"> 100 µM"
>>> assay_result("CN(C)c1nc(N(C)C)n2nc(-c3ccccc3[N+](=O)[O-])nc2n1")
"> 100 µM"
>>> assay_result("COc1ccccc1CNC(=O)C1c2ccccc2C(=O)N(CC(C)C)C1c1cccs1 (configuration not stated)")
"36.9 µM"
>>> assay_result("CC12CCc3ccccc3C1=Nc1ccccc12 (configuration not stated)")
"> 100 µM"
